# Tested on: HT-29
# ASSAY_METHOD_TEXT: NCI tumour cell line growth inhibition, 48 h
Calls of active or inactive are those of the source. No stated cut-off is given here; in the data, active = GI50 up to about 1.1 µM and inactive = higher.
I'd be grateful if you could share measured GI50 for these entries.

// CCOC(=O)NC(=O)c1c[nH]c(=O)[nH]c1=O : GI50 value = > 100 µM (inactive)

// O=c1[nH]nc(-c2cccc(Br)c2)[nH]1 : GI50 value = > 100 µM (inactive)

// Cc1ccc2c(c1)nc1n2C(N)=Nc2ccccc2S1 : GI50 value = 15.8 µM (inactive)

// CN(C)C(=O)CC(C(=O)O)c1c[nH]c2ccccc12 (stereo unspecified) : GI50 value = > 100 µM (inactive)

// CCOC(=O)c1nc2cc(F)cc(F)c2[nH]c1=O : GI50 value = > 100 µM (inactive)

// CNC(=O)OCc1c(CO)nc(SC)n1C : GI50 value = > 100 µM (inactive)

// Cc1cccc(C)c1NC(=O)CCC/C(CC(=O)c1ccc(F)cc1)=N\NC(=O)C(=O)NN : GI50 value = > 100 µM (inactive)

// CC(C)Cc1ccc(C(C)/C=C2\CCC(CN3CCCC3)C2=O)cc1 (stereo unspecified) : GI50 value = 8.09 µM (inactive)

// O=C(O)Cc1cccc2c(=O)c3ccccc3oc12 : GI50 value = > 100 µM (inactive)

// COc1c(C)c(C/C=C(\C)CCCCO[Si](C(C)C)(C(C)C)C(C)C)c(OC)c2ccccc12 : GI50 value = > 100 µM (inactive)

// Cc1cc(=O)[nH]c2cc(NC(=O)C(C)NC(=O)C(C)NC(=O)C(C)NC(=O)OC(C)(C)C)ccc12 (stereo unspecified) : GI50 value = > 15 µM (inactive)

---

# System: OVCAR-5
# ASSAY_METHOD_TEXT: NCI tumour cell line growth inhibition, 48 h
Activity calls are given as the source filed them. Cut-off read from the data, not from the text of the source: active = GI50 up to about 1.1 µM and inactive = higher.
Pick from True (active), False (inactive) when you respond.

Data request: What did this assay record as the result for Cc1cc(C)n(CC(Cn2nc(C)cc2C)=C(/C(Cl)=C(/Cl)Nc2ccc([N+](=O)[O-])cc2)[N+](=O)[O-])n1 ?
Data returned: False

Data request: What did this assay record as the result for O=[N+]([O-])/C(C(Cl)=C(Cl)Cl)=C1/OCCS1 ?
Data returned: False

Data request: What did this assay record as the result for Cc1cc(=O)[nH]c2cc(NC(=O)C(C)NC(=O)C(C)NC(=O)C(C)NC(=O)OC(C)(C)C)ccc12 (stereo not given) ?
Data returned: False

Data request: What did this assay record as the result for NN ?
Data returned: False

Data request: What did this assay record as the result for CC(C)CCC[C@@H](C)C1CCC2[C@@H]3CCC4CC(CCC=C(c5cc(Cl)c(OC(=O)c6ccccc6)c(C(=O)O)c5)c5cc(Cl)c(OC(=O)c6ccccc6)c(C(=O)O)c5)CC[C@]4(C)C3CC[C@@]21C (stereo not given in full) ?
Data returned: False

Data request: What did this assay record as the result for FC(F)(F)c1ccc2nc(Sc3ccc4ccccc4c3)cnc2c1 ?
Data returned: False

Data request: What did this assay record as the result for COc1ccc(-c2cc(-c3ccc(Nc4ccnc5cc(Cl)ccc45)cc3)[nH]c(=O)c2C#N)c2ccccc12 ?
Data returned: False

Data request: What did this assay record as the result for Cc1cc(C)nc(NS(=O)(=O)c2ccc(NC(=O)c3ccc(Cl)c4c(Nc5ccc(S(=O)(=O)N=C(N)N)cc5)c5ccccc5nc34)cc2)n1 ?
Data returned: False

Data request: What did this assay record as the result for CCOC(=O)C1=C(C)NC(=O)NC1c1coc2cc(C)cc(C)c2c1=O (stereo not given) ?
Data returned: False

Data request: What did this assay record as the result for O=C(O)c1ccccc1/N=C/c1ccc(N(CCCl)CCCl)cc1 ?
Data returned: False

Data request: What did this assay record as the result for Cc1ccc(S(=O)(=O)N/N=C/C(Br)=C(/Br)C(=O)O)cc1 ?
Data returned: False

Data request: What did this assay record as the result for CCCCCc1cc2c(cc1O)CC[C@@H]1[C@@H]2CC[C@]2(C)[C@@H](O)CC[C@@H]12 ?
Data returned: False

Data request: What did this assay record as the result for Cc1cccc(C)c1NC(=O)CCC/C(CC(=O)c1ccc(F)cc1)=N\NC(=O)C(=O)NN ?
Data returned: False

Data request: What did this assay record as the result for OCC(O)C(OC1OC(CO)C(O)C(O)C1O)c1nn(-c2ccccc2)c2nc3cc(Cl)c(Cl)cc3cc12 (stereo not given) ?
Data returned: False

Data request: What did this assay record as the result for C#CCN1CCN(C(=S)N/N=C(\C)c2ccccn2)CC1 ?
Data returned: True

Data request: What did this assay record as the result for C=C(COC(C)=O)CC(/C=C(\C)CC/C=C(\C)CO)OC(C)=O (stereo not given) ?
Data returned: False

Data request: What did this assay record as the result for O=C(O)CNc1ccc2c(c1)Cc1cc(Br)ccc1-2 ?
Data returned: False

Data request: What did this assay record as the result for O=C(/C=C/C(=O)N1CCCC1)N1CCCC1 ?
Data returned: False

Data request: What did this assay record as the result for COc1cc(OC)c2nc(C)c(CCCl)c(Cl)c2c1 ?
Data returned: False

Data request: What did this assay record as the result for COc1ccc2c(c1)CC1c3c(ccc(OC)c3O)CC2N1C (stereo not given) ?
Data returned: False
